Here, each record is paired with measured inhibition data.
measurement.target: Homeodomain-interacting protein kinase 4 (Homo sapiens);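 further: values are mean percent inhibition of HIPK4 from the GSK PKIS kinase screen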
Sequence (whole entry): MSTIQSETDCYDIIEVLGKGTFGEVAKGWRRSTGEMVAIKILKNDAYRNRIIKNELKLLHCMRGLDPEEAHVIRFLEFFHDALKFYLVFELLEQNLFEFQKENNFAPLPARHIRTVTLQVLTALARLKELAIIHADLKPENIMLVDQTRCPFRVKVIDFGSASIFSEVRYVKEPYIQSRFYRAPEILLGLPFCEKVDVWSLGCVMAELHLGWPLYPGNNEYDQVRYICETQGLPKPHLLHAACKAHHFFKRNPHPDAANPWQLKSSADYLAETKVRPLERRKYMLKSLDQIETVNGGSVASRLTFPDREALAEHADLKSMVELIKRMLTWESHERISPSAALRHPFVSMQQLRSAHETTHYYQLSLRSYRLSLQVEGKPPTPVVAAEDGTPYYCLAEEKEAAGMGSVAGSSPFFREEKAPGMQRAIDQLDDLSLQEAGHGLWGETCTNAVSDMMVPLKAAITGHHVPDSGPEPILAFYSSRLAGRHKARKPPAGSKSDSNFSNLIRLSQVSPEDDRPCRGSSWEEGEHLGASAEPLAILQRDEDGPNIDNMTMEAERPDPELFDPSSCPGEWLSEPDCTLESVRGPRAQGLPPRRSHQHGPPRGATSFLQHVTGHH
experimental.setup: at 1 µM
assay.metric: inhibition

molecule	assay.metric	result
NS(=O)(=O)c1ccc(Nc2cc(-c3ccc(O)c(F)c3)n[nH]2)cc1	inhibition	10.4%
CCS(=O)(=O)c1ccc(OC)c(Nc2ncc(-c3ccccc3Cl)o2)c1	inhibition	47.5%
Cc1nnc(-c2ccc(C)c(-c3ccc(C(=O)NCc4ccc(Cl)cc4)cc3)c2)o1	inhibition	0.29%
COc1cccc(-n2cnc3c(N/N=C/c4ccncc4)ncnc32)c1	inhibition	3.74%
Cc1ccc(NC(=O)c2ccoc2)cc1-c1ccc(C(=O)NCC2CC2)cc1	inhibition	0.22%
Nc1nccc(-c2c(-c3ccc(F)cc3)ncn2C2CCC(O)CC2)n1 (centres undefined)	inhibition	3.26%
C#Cc1cccc(Nc2ncnc3ccc(OCCCCNCCS(C)(=O)=O)cc23)c1	inhibition	24.9%
C/C(Nc1ccc(S(N)(=O)=O)cc1)=C1/C(=O)Nc2ccccc21	inhibition	2.56%
O=C1Nc2ccc(I)cc2C1=Cc1cc(Br)c(O)c(Br)c1	inhibition	6.76%
